Recorded values, source the DeepSol protein solubility set.

assay_name: soluble on expression in E. coli; label from the status in PepcDB or PDB records
outcome_measure: soluble on expression in E. coli

sequence_data	outcome_measure	result_value
GHMKGLTEKLMILSHQSIKNLLGKVILNYSEENVRENGYDLRICGDKYYELVQGAELPEKKATLREIEFKERAILSANHTYLFESCEEFNMPADLAVLITLKSTLARNGFLAPPTVIDAGYKGKVNVAITAVYNSSLKKGMATHHLIFLKLDKPTERLYNGKYQGGILI	soluble on expression in E. coli	soluble
MNTKFLGKTLVASALVLTTLGTGLHSSYLGLDTNKVVKTAKAEEKMTDGQLWKKVKDSLHDSDIILSNEYETINVTYLLSNGYSSSVSAPGNDDGGHLTQSIDFKGLKQIDLTKENVYDDFNKKLDAKNTWNSLTEKLKGLGLLQNGQKVSIYSSDSSSPVSGKVGEGVTSGGENTLTKRFINKITID	soluble on expression in E. coli	not soluble
MAHKSKSPYLMYPEKEPFPILNKHSHYDHLFEEMYELEEKGEILVFRITEEYRPKYVYTRTGRIKVIPTNKLWHHKSCGQCGNIPGYPASIFWFMNKFGLDYLNEPHQTSCTAWNYHGSGTSNPVALAAVWLRNMHQAWKTGYYPLIHCGTSFGSYKETREQLIFNKELREAVKPILKKLGRLTEDGRIVIPQEIVHYSEWVHAMRDGNSRPLRKRKESPKE	soluble on expression in E. coli	not soluble
MGSDKIHHHHHHMIILDNHFHVDPINGLFLEAVKQFHRAGGTHLVVVYKSAHDYGFGGMKGEDFMRAMDFHVELVEIINKETPVKAYAVVGVHPAEFDYLARARGIEYAKREVMKALEHAQRLCLDGKAIGIGEVGRPHYPVPEEIWEASIEIMKYAMALAKEADCAVQLHTESFDEEKFRELGRYVREVGIKPYRVVKHFSPPLVKVAEEVGIFPSIIASRKNIEEAIKQGTRFLMETDYIDDKRRPGAVLGPKTVPRRTKELLQKGILTEDDVYRIHVENPEKVYGIEL	soluble on expression in E. coli	not soluble
GITPKYTATAKVYMVSASKNSVVDLADLSIGTSLSEDYAELLHVRPIIEAINEENDLGYTYEQLNGMIDISTVEDTRILKISATSIKPEEAKTIANALAEKAVTEIPKLMGTSSPNIAERAITPKGKSSPSLKKN	soluble on expression in E. coli	soluble
MSNDQSAMNELHWLIDMVQTIEVGLVVLDRDYNIQLWNGFMENHSGVSPNSIKGQNLFSRFPDLPATWLKQKMESVFMLKNRAFISWEQRPYVFQFKNYRPITGRADFMYQNVTLLPLASLTGKITHISVIVYDVTDIAVNKLEHHHHHH	soluble on expression in E. coli	soluble
MGSDKIHHHHHHMHTVAVERAARYDPSEVAEAMDRALASLGGMDTFVRPGERVLIKPNMLAAKAPERAVTTHPEVLRAVIRLVRKAGGIPLVGDSPGIGGFRAVAEKSGMAAVVREAGAELVPFDEAVAVPGSGLFRRMDVARPYLEADRLINLPKLKTHEMMTMTCAVKNLFGAVVGTAKAGWHLKAGADRELFARLLLEIYLLRPPDLTIVDGIVAMEGDGPGSGDPRPMGLILAGANAVAVDVVAAELAGIPKQLLWVERAAERLGIDGWDRSRIATVGLPPDDARVPDFRLPHLSDVQFGIPGFLKNRLRHHLTARPVPNPEGCHLCGACLDACPPRAISVRDGRLHFDYHACIRCFCCRELCPDGSLGVRDGVLLKLLKKFKE	soluble on expression in E. coli	not soluble
MREFSRPKVVISRCLEFDHCRYNGDMISSPVVVKLKKHVDFLPVCPEVEIGLGVPRNPVRIVLDKGDHRLVQPSSGKDVTEDMKSFCSNFLDSIYEVDGFILKFRSPSCGLKDVKVYPSAGSHGGAVEKISGYFGGAVLGRYPFHPVEDEGRLRNARIKEHFLTKLFTFAAFRKVKSEGSIKDLINFHAQNKFLLMAYNQAELQKLGEIAANREKRPWKELISDYENHLYSALSRAPRYTSTINVLMHALGFFSDQLSSREKALFFDWVQKYREGRASVCPAINMIRSWIVRFEDGYLMSQTFFEPYPEDLIEINPVESHLREDLWK	soluble on expression in E. coli	not soluble
MASEMKFAWLLAPDTYWDEKKTFITAALESGIDHIVDTADSGRIKKLGNLTLISPDEDADIVLVGRDGEGDGTLELPETLEYSRDIEMASELSESGRQVAAYVEIRSKAHEELARRLGRVVDYLILVGEDWKIIPLENIIADLQEEDVKLIAAVADVDEARVALETLEHGTDGVLIEPADISQIKDIAALLENIESETYELKPATITRIEPIGSGDRVCVDTCSIMGIGEGMLVGSYSQGLFLVHSESLESEYVASRPFRVNAGPVQAYVMVPGGRTRYLSELETGDEVIIVDRDGRSRSAIVGRVKIEKRPLMLVEAEYEGMKVRTLLQNAETIRLVNDKGEPVSVSELGEGDRVLVYFDESARHFGMAIKETIIEKLEHHHHHH	soluble on expression in E. coli	soluble
NPVENYIDEVLNEVLVVPNINSSNPTTSNSAPALDAAETGHTSSVQPEDVIETRYVQTSQTRDEMSLESFLGRSGCIHESKLEVTLANYNKENFTVWAINLQEMAQIRRKFELFTYTRFDSEITLVPCISALSQDIGHITMQYMYVPPGAPVPNSRDDYAWQSGTNASVFWQHGQAYPRFSLPFLSVASAYYMFYDGYDEQDQNYGTANTNNMGSLCSRIVTEKHIHKVHIMTRIYHKAKHVKAWCPRPPRALEYTRAHRTNFKIEDRSIQTAIVTRPIITTAGPSDMY	soluble on expression in E. coli	soluble
MLESNENRIQIMSTIAKIYRAMSRELNRRLGELNLSYLDFLVLRATSDGPKTMAYLANRYFVTQSAITASVDKLEEMGLVVRVRDREDARKILIEITEKGLETFNKGIEIYKKLANEVTGDLSEDEVILVLDKISKILKRIEEISQ	soluble on expression in E. coli	soluble
MSQFTHYPPVSDKQLGFFIDSSRCSGCKACQVACKDKNNLEVGRRFRRVYEVKGGSFIPTGQGGVSNNVFAYTLSISCNHCADPVCTKNCPTTAMHKRPGDGIVRVDTDKCVGCGYCAWSCPYGAPQLNEQTGQMSKCDMCVDLLAKGEPPVCVATCPLEAIKFGPIDELRAKYGSVCDVNGLPDSSITKPNLVVKAHQGAEKEGKRHA	soluble on expression in E. coli	not soluble
TGALMASSPQDIKFQDLVVFILEKKMGTTRRALLMELARRKGFRVENELSDSVTHIVAENNSGSDVLEWLQAQKVQVSSQPELLDVSWLIECIGAGKPVEMTGKHQL	soluble on expression in E. coli	soluble
